Target: PKA (Homo sapiens, UniProt P17612)
Assay: PKA Literature Mimetic assay
Format: biochemical
Settings: Literature Mimetic (L) conditions
*1 amine or outer side, *2 acyl side, *3 side chain or, on linkers, in order; H or OH if unused. Where a SMILES comes first, the peptide text is derived from it. [ ]: non-standard residue; d: D form. X2 = O=C(O)CC(CC(=O)O)NC[C@H](N[*:1])C(=O)[*:2]; Abu(4-PO3H2) = N[C@@H](CCP(=O)(O)O)C(=O)O
measurement_label: Ki (µM)

INSERT INTO measurements (compound, measurement_label, quantity_unit, val) VALUES
  ('CC[C@H](C)[C@H](NC(=O)[C@H](CC(O)P(=O)(O)O)NC(=O)CNC(=O)[C@H](CCCNC(=N)N)NC(=O)[C@H](CCCNC(=N)N)NC(C)=O)C(N)=O (single isomer, unassigned) [inhibitor 3A]', 'Ki', 'µM', 18),
  ('CC[C@H](C)[C@H](NC(=O)[C@H](CC(O)P(=O)(O)O)NC(=O)CNC(=O)[C@H](CCCNC(=N)N)NC(=O)[C@H](CCCNC(=N)N)NC(C)=O)C(N)=O (single isomer, unassigned) [inhibitor 3B]', 'Ki', 'µM', 72),
  ('CC[C@H](C)[C@H](NC(=O)[C@H](CNC(CC(=O)O)CC(=O)O)NC(=O)CNC(=O)[C@H](CCCNC(=N)N)NC(=O)[C@H](CCCNC(=N)N)NC(C)=O)C(N)=O (Ac-RRG[X2]I-NH2)', 'Ki', 'µM', 45),
  ('CC[C@H](C)[C@H](NC(=O)[C@H](CCP(=O)(O)O)NC(=O)CNC(=O)[C@H](CCCNC(=N)N)NC(=O)[C@H](CCCNC(=N)N)NC(C)=O)C(N)=O (Ac-RRG[Abu(4-PO3H2)]I-NH2)', 'Ki', 'µM', 76);

* * *

Target: src (Homo sapiens, UniProt P12931)
Construct: purchased
Sequence (P12931 whole entry): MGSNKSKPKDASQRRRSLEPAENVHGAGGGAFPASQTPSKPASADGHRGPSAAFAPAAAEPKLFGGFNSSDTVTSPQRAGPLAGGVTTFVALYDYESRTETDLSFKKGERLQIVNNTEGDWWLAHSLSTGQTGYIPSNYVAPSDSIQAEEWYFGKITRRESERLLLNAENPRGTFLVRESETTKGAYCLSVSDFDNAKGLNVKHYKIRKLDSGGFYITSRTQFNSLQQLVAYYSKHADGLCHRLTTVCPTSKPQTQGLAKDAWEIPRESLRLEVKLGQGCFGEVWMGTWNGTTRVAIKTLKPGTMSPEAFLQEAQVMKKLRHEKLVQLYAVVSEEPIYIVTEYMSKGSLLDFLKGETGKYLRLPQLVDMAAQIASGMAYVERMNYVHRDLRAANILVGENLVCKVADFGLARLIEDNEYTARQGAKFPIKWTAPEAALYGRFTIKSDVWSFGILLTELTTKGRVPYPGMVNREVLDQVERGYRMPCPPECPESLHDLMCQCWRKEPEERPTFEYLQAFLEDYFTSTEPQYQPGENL
Experiment: src Literature Mimetic assay (RR-src phosphorylation)
Type: biochemical
Conditions: Inhibitor 1 mM; read-out: % Inhibition of 2 mM RR-src phosphorylation by src, Literature Mimetic
measurement_label: inhibition at 1000 µM (%)

INSERT INTO measurements (molecule, val) VALUES
  ('O=P(O)(O)CO', 51),
  ('NC(=O)C(O)C(=O)O (stereo not shown)', 64),
  ('NC(=O)CC(=O)O', 20),
  ('NC(=O)C(N)C(=O)O (stereo not shown)', 24);
